// reported pIC50 per item
System: lymphoid leukemia L1210 cells
Experimental details: inhibition of proliferation of cultured lymphoid leukemia L1210 cells
Assay type: cell-based
Conditions used: Mus musculus, concentration that inhibits proliferation to 50% of control growth, 24 hours, (g) = average of 2 determinations, read-out: L1210 ID50
pIC50: −log10 of the molar value.
Reported property: pIC50

{"Compound": "CCOC(=O)Nc1cc2c(c(N)n1)N=C(c1ccccc1)C(C)N2 (stereo not shown)", "Reported property": "pIC50", "Recorded value": 9.29}
{"Compound": "CCOC(=O)Nc1cc2c(c(N)n1)N=C(c1ccc(C(F)(F)F)cc1)CN2", "Reported property": "pIC50", "Recorded value": 6.82}
{"Compound": "CCOC(=O)Nc1cc2c(c(N)n1)N=C(c1ccc(OC)cc1)CN2", "Reported property": "pIC50", "Recorded value": 8.39}
{"Compound": "COC(=O)Nc1nc2ccc(C(=O)c3cccs3)cc2[nH]1 [Nocodazole, reference compound]", "Reported property": "pIC50", "Recorded value": 7.57}

====

System: lymphoid leukemia L1210 cells
Experimental details: inhibition of proliferation of cultured lymphoid leukemia L1210 cells
Assay type: cell-based
Conditions used: Mus musculus, concentration that inhibits proliferation to 50% of control growth, 24 hours, (g) = average of 2 determinations, read-out: L1210 ID50
Reported property: log10(IC50) (log10 of the value in nM)

{"Compound": "CCOC(=O)Nc1cc2c(c(N)n1)N=C(c1ccc(F)cc1)CN2 [4-FC6 H4]", "Experimental system": "lymphoid leukemia L1210 cells", "log10(IC50)": 0.83}
{"Compound": "CCOC(=O)Nc1cc2c(c(N)n1)N=C(c1ccc(Cl)cc1Cl)CN2 [2,4-Cl2 C6 H3]", "Experimental system": "lymphoid leukemia L1210 cells", "log10(IC50)": 1.64}
{"Compound": "CCOC(=O)Nc1cc2c(c(N)n1)N=C(c1ccc(C)c(C)c1)CN2 [3,4-(CH3)2 C 6 H3]", "Experimental system": "lymphoid leukemia L1210 cells", "log10(IC50)": 2.14}
{"Compound": "CCOC(=O)Nc1cc2c(c(N)n1)N=C(c1ccc(Cl)c(Cl)c1)CN2 [3,4-Cl2 C6 H3]", "Experimental system": "lymphoid leukemia L1210 cells", "log10(IC50)": 1.26}
{"Compound": "CCOC(=O)Nc1cc2c(c(N)n1)N=C(c1ccccc1)CN2C [C6 H5, R3 = CH3]", "Experimental system": "lymphoid leukemia L1210 cells", "log10(IC50)": 2.20}
{"Compound": "CCOC(=O)Nc1cc2c(c(N)n1)N=C(c1ccc3ccccc3c1)CN2 [2-C10 H7]", "Experimental system": "lymphoid leukemia L1210 cells", "log10(IC50)": 0.78}

====

Test system: lymphoid leukemia L1210 cells
Experimental details: inhibition of proliferation of cultured lymphoid leukemia L1210 cells
Type: cell-based
Conditions used: Mus musculus, concentration that inhibits proliferation to 50% of control growth, 24 hours, (g) = average of 2 determinations, read-out: L1210 ID50
pIC50: −log10 of the molar value.

{"Smiles repr": "CCOC(=O)Nc1cc2c(c(N)n1)N=C(c1cccc(OC)c1)CN2", "pIC50": 8.91}
{"Smiles repr": "CCOC(=O)Nc1cc2c(c(N)n1)N=C(c1ccccc1)CN2", "pIC50": 8.33}
{"Smiles repr": "CCOC(=O)Nc1cc2c(c(N)n1)N=C(c1ccc(C)cc1C)CN2", "pIC50": 7.38}
{"Smiles repr": "CCOC(=O)Nc1cc2c(c(N)n1)N=C(c1ccc(N)cc1)CN2", "pIC50": 7.64}
{"Smiles repr": "CCOC(=O)Nc1cc2c(c(N)n1)N=C(c1ccc(C)cc1)CN2", "pIC50": 7.62}
